tested on: PRMT1 (protein arginine N-methyltransferase 1); assay: PRMT1 binders on small-molecule microarrays, primary screen, biochemical, small-molecule microarray, 635 nm fluorescence (AID 1088); settings: small-molecule microarray binding, higher = more signal;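 note: binding of Prmt1 protein to compounds spotted on small-molecule microarray slides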
Decision: composite z-score compared against 1; not below it gives Met, below it gives Not met.

INSERT INTO results (molecule, cat) VALUES
  ('CC(C)(C)OC(=O)CC[C@]12N=C(c3ccc(OCCCO)cc3)O[C@H]1c1ccccc1N(CCS(=O)(=O)c1ccccc1)C2=O', 'Met'),
  ('CCOC1=C2C(CN(S(=O)(=O)c3ccc(C)cc3)C2c2ccc(C)cc2)C2C(=O)N(c3ccccc3)C(=O)C2C1 (configuration not stated)', 'Not met'),
  ('COc1ccc([Si](C)(C)[C@H]2[C@H](CCO)O[C@@]3(C(=O)N(Cc4ccc(N5C(=O)COc6ccccc65)cc4)c4ccccc43)[C@@H]2C)cc1', 'Met'),
  ('CC(C)c1ccc(NN2C(C(O)c3cc(C(F)(F)F)cc(C(F)(F)F)c3)C=CC3C(=O)N(c4ccccc4)C(=O)C32)cc1 (configuration not stated)', 'Not met'),
  ('COC(=O)C=C(CC(O)c1cccc(Cl)c1)OC (configuration not stated)', 'Not met'),
  ('COCCOC(=O)N1C(=O)[C@@]2(c3cc(C#CCCO)ccc31)[C@H](C(=O)Nc1nc3ccccc3s1)[C@H]1C(=O)O[C@H](c3ccccc3)[C@H](c3ccccc3)N1[C@@H]2c1ccc(OCCO)cc1', 'Met'),
  ('O=C(NCc1ccc(F)cc1)[C@H]1C[C@H]2C(=O)N[C@@H](Cc3ccccc3)C(=O)N2[C@H]1c1ccc(O)cc1', 'Not met');
